Below: a set of entries, each annotated with reported Kd.
test-system: T1, biotin-Aβ1-20 (biotin (position not given))
T1 peptide: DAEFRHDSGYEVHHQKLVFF
protocol-details: BIACORE, biotin-Aβ1-20 as antigen; column IgG1#1

binder | Kd (nM)
20C2-10A, affinity matured humanized 20C2, IgG1 humanized A version (antibody, V domains shown, also called 20C2-1GA; SJ-p3-33) VH: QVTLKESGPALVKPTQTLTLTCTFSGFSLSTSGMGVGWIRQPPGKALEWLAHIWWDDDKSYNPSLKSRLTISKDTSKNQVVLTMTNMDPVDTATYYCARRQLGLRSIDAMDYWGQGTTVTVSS VL: DVVMTQSPLSLPVTPGEPASISCRSSQSILHSNGNTYLEWYLQKPGQSPQLLIYKVSNRFSGVPDRFSGSGSGTDFTLKISRVEAEDVGVYYCFQGSRLPVSFGQGTKLEIKR | 84
20C2-1A, affinity matured humanized 20C2, IgG1 humanized A version (antibody, V domains shown, also called SJ-p2-60) VH: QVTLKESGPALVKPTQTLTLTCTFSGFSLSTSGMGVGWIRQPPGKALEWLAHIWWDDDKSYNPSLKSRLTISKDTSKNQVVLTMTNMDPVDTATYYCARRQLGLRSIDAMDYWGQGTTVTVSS VL: DVVMTQSPLSLPVTPGEPASISCRSSQSILHSNGNTYLEWYLQKPGQSPQLLIYKVSNRFSGVPDRFSGSGSGTDFTLKISRVEAEDVGVYYCFQASRVPLTFGQGTKLEIKR | 1.2
20C2-22A, affinity matured humanized 20C2, IgG1 humanized A version (antibody, V domains shown, also called SJ-p2-66) VH: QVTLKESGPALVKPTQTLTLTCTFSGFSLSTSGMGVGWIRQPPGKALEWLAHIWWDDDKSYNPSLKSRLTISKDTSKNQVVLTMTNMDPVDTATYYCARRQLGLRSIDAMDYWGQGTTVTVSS VL: DVVMTQSPLSLPVTPGEPASISCRSSQSILHSNGNTYLEWYLQKPGQSPQLLIYKVSNRFSGVPDRFSGSGSGTDFTLKISRVEAEDVGVYYCSQASRVPLTFGQGTKLEIKR | 2.3
murine anti-ADDL monoclonal antibody 20C2 (antibody, mouse IgG1, V domains shown, also called Mouse-20C2) VH: QVTLKESGPGILKPSQTLSLTCSLSGFSLSTSGMGVGWFRQPSGKGLEWLAHIWWDDDKSYNPSLKSRLTISKYTSRNQVFLTITSVDTADTATYYCARRQLGLRSIDAMDYWGQGTSVTVSS VL: DVLMTQTPLSLPVSLGDQASISCRSSQSILHSNGNTYLEWYLQKPGQSPKLLIYKVSNRFSGVPDRFSGSGSGTDFTLKISRVEAEDLGVYYCFQGSLVPLTFGAGTKLELK | 3.4
20C2-6B, affinity matured humanized 20C2, IgG1 humanized B version (antibody, V domains shown, also called 4P1-22) VH: QVTLKESGPALVKPTQTLTLTCTLSGFSLSTSGMGVGWIRQPPGKALEWLAHIWWDDDKSYNPSLKSRLTISKDTSKNQVVLTMTNMDPVDTATYYCARRQLGLRSIDAMDYWGQGTTVTVSS VL: DVVMTQSPLSLPVTPGEPASISCRSSQSILHSNGNTYLEWYLQKPGQSPQLLIYKVSNRFSGVPDRFSGSGSGTDFTLKISRVEAEDVGVYYCFQSSRVPLTFGQGTKLEIKR | 0.053
20C2-6A, affinity matured humanized 20C2, IgG1 humanized A version (antibody, V domains shown, also called 4P1-22) VH: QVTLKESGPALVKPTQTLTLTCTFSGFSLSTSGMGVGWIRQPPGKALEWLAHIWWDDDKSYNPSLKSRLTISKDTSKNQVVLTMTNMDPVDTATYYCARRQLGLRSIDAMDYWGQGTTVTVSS VL: DVVMTQSPLSLPVTPGEPASISCRSSQSILHSNGNTYLEWYLQKPGQSPQLLIYKVSNRFSGVPDRFSGSGSGTDFTLKISRVEAEDVGVYYCFQSSRVPLTFGQGTKLEIKR | 0.544

All figures here come from patent US20060228349A1.
